// reported binding signal for each item listed
# study_system: AGO2 A367P (Homo sapiens, UniProt Q9UKV8 1-859, A367P;S387D;S824A;S828D;S831D;S834A)
# Sequence (Q9UKV8 whole entry A367P/S387D/S824A/S828D/S831D/S834A): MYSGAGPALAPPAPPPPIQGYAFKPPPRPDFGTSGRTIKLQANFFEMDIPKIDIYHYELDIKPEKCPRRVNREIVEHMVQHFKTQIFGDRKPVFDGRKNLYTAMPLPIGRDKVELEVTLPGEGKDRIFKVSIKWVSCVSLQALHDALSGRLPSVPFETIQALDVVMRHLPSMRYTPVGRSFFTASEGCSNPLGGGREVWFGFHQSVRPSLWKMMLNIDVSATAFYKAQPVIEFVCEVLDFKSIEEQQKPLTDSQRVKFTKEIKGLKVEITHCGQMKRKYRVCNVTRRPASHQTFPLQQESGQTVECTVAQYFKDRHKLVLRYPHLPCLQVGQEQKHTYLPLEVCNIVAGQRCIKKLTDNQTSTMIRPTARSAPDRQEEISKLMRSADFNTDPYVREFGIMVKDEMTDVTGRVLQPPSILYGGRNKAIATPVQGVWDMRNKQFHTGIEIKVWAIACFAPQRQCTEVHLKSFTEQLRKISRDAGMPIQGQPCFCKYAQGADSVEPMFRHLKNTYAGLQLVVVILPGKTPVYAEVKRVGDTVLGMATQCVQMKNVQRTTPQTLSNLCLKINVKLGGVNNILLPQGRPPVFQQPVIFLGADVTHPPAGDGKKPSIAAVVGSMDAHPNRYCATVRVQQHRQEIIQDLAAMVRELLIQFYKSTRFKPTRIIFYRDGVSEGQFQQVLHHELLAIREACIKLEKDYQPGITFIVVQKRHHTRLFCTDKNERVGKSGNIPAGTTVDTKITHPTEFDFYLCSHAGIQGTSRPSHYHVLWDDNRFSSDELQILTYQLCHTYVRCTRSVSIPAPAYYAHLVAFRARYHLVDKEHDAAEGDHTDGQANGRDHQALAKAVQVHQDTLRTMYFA
# test_details: RNA Bind-n-Seq (nitrocellulose filter binding and sequencing); miR-122 guide loaded in AGO2; 60 min incubation; 30 mM Tris pH 8.0, 100 mM potassium acetate, 2 mM magnesium acetate, 0.5 mM TCEP, 0.005% NP-40, 0.01 mg/ml yeast tRNA; 3 nM AGO2-miR-122, 100 nM RNA library; 60; high values mean tight binding
# test_context: protein: recombinant; tags: His6 (N-terminal, pFastBac HTA)
observable: binding signal

>  <binder>
GTACCCCA (ssRNA, constant regions annealed to DNA blockers; guide miR-122 5' phosphate) RNA 1: GAGUUCUACAGUCCGACGAUCCCAACGUACCCCACACCUGGAAUUCUCGGGUGCCAA RNA 2: UGGAGUGUGACAAUGGUGUUUG DNA 1: GATCGTCGGACTGTAGAACTC DNA 2: TTGGCACCCGAGAATTCCA

>  <observable>
binding signal

>  <observed_measurement>
0.247 fold enrichment over input

$$$$
>  <binder>
GTGTCTTG (ssRNA, constant regions annealed to DNA blockers; guide miR-122 5' phosphate) RNA 1: GAGUUCUACAGUCCGACGAUCCCAACGUGUCUUGCACCUGGAAUUCUCGGGUGCCAA RNA 2: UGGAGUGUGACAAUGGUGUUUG DNA 1: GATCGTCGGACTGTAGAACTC DNA 2: TTGGCACCCGAGAATTCCA

>  <observable>
binding signal

>  <observed_measurement>
0.131 fold enrichment over input

$$$$
>  <binder>
GCGCCTTA (ssRNA, constant regions annealed to DNA blockers; guide miR-122 5' phosphate) RNA 1: GAGUUCUACAGUCCGACGAUCCCAACGCGCCUUACACCUGGAAUUCUCGGGUGCCAA RNA 2: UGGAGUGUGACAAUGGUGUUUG DNA 1: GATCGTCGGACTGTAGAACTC DNA 2: TTGGCACCCGAGAATTCCA

>  <observable>
binding signal

>  <observed_measurement>
0.194 fold enrichment over input

$$$$
>  <binder>
ATGTCTCA (ssRNA, constant regions annealed to DNA blockers; guide miR-122 5' phosphate) RNA 1: GAGUUCUACAGUCCGACGAUCCCAACAUGUCUCACACCUGGAAUUCUCGGGUGCCAA RNA 2: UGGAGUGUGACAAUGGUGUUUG DNA 1: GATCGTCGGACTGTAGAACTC DNA 2: TTGGCACCCGAGAATTCCA

>  <observable>
binding signal

>  <observed_measurement>
0.501 fold enrichment over input

$$$$
>  <binder>
GCGTTTCA (ssRNA, constant regions annealed to DNA blockers; guide miR-122 5' phosphate) RNA 1: GAGUUCUACAGUCCGACGAUCCCAACGCGUUUCACACCUGGAAUUCUCGGGUGCCAA RNA 2: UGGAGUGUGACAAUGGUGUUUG DNA 1: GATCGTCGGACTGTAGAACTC DNA 2: TTGGCACCCGAGAATTCCA

>  <observable>
binding signal

>  <observed_measurement>
0.227 fold enrichment over input

$$$$
>  <binder>
GCACCCTA (ssRNA, constant regions annealed to DNA blockers; guide miR-122 5' phosphate) RNA 1: GAGUUCUACAGUCCGACGAUCCCAACGCACCCUACACCUGGAAUUCUCGGGUGCCAA RNA 2: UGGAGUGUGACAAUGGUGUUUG DNA 1: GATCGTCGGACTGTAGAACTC DNA 2: TTGGCACCCGAGAATTCCA

>  <observable>
binding signal

>  <observed_measurement>
0.214 fold enrichment over input

$$$$
>  <binder>
GCATCCCA (ssRNA, constant regions annealed to DNA blockers; guide miR-122 5' phosphate) RNA 1: GAGUUCUACAGUCCGACGAUCCCAACGCAUCCCACACCUGGAAUUCUCGGGUGCCAA RNA 2: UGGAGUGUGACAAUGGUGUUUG DNA 1: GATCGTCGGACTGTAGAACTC DNA 2: TTGGCACCCGAGAATTCCA

>  <observable>
binding signal

>  <observed_measurement>
0.201 fold enrichment over input

$$$$
>  <binder>
ACACTCCG (ssRNA, constant regions annealed to DNA blockers; guide miR-122 5' phosphate) RNA 1: GAGUUCUACAGUCCGACGAUCCCAACACACUCCGCACCUGGAAUUCUCGGGUGCCAA RNA 2: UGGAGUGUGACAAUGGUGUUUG DNA 1: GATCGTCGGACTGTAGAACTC DNA 2: TTGGCACCCGAGAATTCCA

>  <observable>
binding signal

>  <observed_measurement>
140 fold enrichment over input

$$$$
